# assayed_system: UniProt:P15056
# assay_method_text: B-Raf Accelerated MEK ATPase assay (BRAMA)
# Type: biochemical
# Description: Compounds of the present invention were tested for B-Raf […] inhibitory activity in a B-Raf Accelerated MEK ATPase assay (BRAMA). The BRAMA assay is a high sensitivity assay which measures an intrinsic MEK-mediated ATP hydrolysis uncoupled from downstream ERK phosphorylation by coupling the formation of ADP to NADH oxidation through the enzymes pyruvate kinase and lactate dehydrogenase. […]
observable: IC50

Dear colleague, I am looking for the recorded IC50 of the following molecule: CCNc1nc(-c2cc(C)cc(OC)c2)c(-c2ccnc(Nc3ccc(N4CCN(CCF)CC4)c(F)c3)n2)o1 [Example 128]
< 100 nM

###

Readings of pIC50 for the listed compounds
# assayed_system: B-Raf (Homo sapiens, UniProt P15056)
# assay_method_text: B-Raf Accelerated MEK ATPase assay (BRAMA)
# Type: biochemical
# assay_conditions: BRAMA enzyme assay; class by pIC50; read-out: B-Raf Activity
pIC50: −log10 of the molar value.

CCNc1nc(-c2cccc(OC)c2F)c(-c2ccnc(Nc3ccc(OC4CCN(CCS(C)(=O)=O)CC4)c(F)c3)n2)s1 [Example 48] | > 7.00
CCNc1nc(-c2cccc(OC)c2)c(-c2ccnc(Nc3ccc(OC4CCN(CCS(C)(=O)=O)CC4)c(F)c3)n2)s1 [Example 41] | > 7.00

Please find the next compound below.
Form: Entry = CCNc1nc(-c2cc(OC)cc(OC)c2)c(-c2ccnc(Nc3ccc(N4CCOCC4)c(F)c3)n2)o1 [Example 118] | System = B-Raf (Homo sapiens, UniProt P15056) | pIC50 = ____
> 7.00

###

# Test system: A375P tumor cells
# assay_method_text: Cell growth inhibition assay (CellTiter-Glo), A375P
# assay_conditions: Homo sapiens, 72 h, read-out: Activity in A375P Tumor Cells
observable: IC50

CCNc1nc(-c2cc(OC)cc(OC)c2)c(-c2ccnc(Nc3ccc(N4CCS(=O)(=O)CC4)c(F)c3)n2)s1 | 500 to 5000 nM
CCc1nc(-c2cc(C)cc(OC)c2)c(-c2ccnc(Nc3ccc(OCCO)c(C#N)c3)n2)s1 | 500 to 5000 nM
CCNc1nc(-c2cc(OC)cc(OC)c2)c(-c2ccnc(Nc3ccc(OC4CCN(CCOC)CC4)c(F)c3)n2)o1 | 500 to 5000 nM

Please find the next compound below.
Dear colleague, I am looking for the recorded IC50 of the following compound: `COc1cc(C)cc(-c2nc(C(C)C)sc2-c2ccnc(Nc3ccc(N4CCN(C(C)=O)CC4)nc3)n2)c1`
< 500 nM

###

# System: A375P tumor cells
# assay_method_text: Cell growth inhibition assay (CellTiter-Glo), A375P;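 also: total ATP luminescence used as proxy for cell number, serial threefold compound dilutions at 0.2% DMSO, growth inhibition expressed versus DMSO vehicle-treated wells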
# assay_conditions: Homo sapiens, 72 h, read-out: Activity in A375P Tumor Cells
observable: IC50

Some molecules with known IC50 results, for comparison:
CCNc1nc(-c2cc(OC)cc(OC)c2)c(-c2ccnc(Nc3ccc(OC4CCN(CCS(C)(=O)=O)CC4)c(Cl)c3)n2)o1 [Example 92] | 500 to 5000 nM
CCNc1nc(-c2cc(C)cc(OC)c2)c(-c2ccnc(Nc3ccc(N4CCN(C(=O)COC)CC4)nc3)n2)s1 [Example 37] | < 500 nM
COc1cccc(-c2nc(CO)sc2-c2ccnc(Nc3ccc(OCCN4CCCC4)c(F)c3)n2)c1 [Example 60] | 500 to 5000 nM
CCNc1nc(-c2cc(C)cc(OC)c2)c(-c2ccnc(Nc3ccc(N4CCOCC4)c(F)c3)n2)s1 [Example 28] | < 500 nM
CNc1nc(-c2cc(OC)cc(OC)c2)c(-c2ccnc(Nc3ccc(OCCN4CCCC4)c(Cl)c3)n2)s1 [Example 20] | < 500 nM

Dear colleague, I am looking for the recorded IC50 of the following molecule: CCNc1nc(-c2cccc(O)c2)c(-c2ccnc(Nc3ccc(OCCN4CCCC4)c(Cl)c3)n2)s1 [Example 44]
< 500 nM

Dear colleague, I am looking for the recorded IC50 of the following molecule: CCNc1nc(-c2cc(Cl)cc(OC)c2)c(-c2ccnc(Nc3ccc(N4CCN(CCF)CC4)c(F)c3)n2)o1 [Example 104]
500 to 5000 nM

This collection of values is drawn from patent US20110190280A1.
